All values here come from patent US20190218553.

Kindly supply the reported pKd values for the records listed here.
- assayed-target: von Willebrand factor (VWF) (Homo sapiens, UniProt P04275 P04275:764-2813)
- assay-comment: filter; Bmax 61%; 2 mM CaCl2, 37 C
- protocol-conditions: tags: factor VIII free, Haematologic Technologies Inc; label: 5'-32P
Answers are plain numbers, as −log10 of the molar value.

Before answering, review these 2 worked examples.
| binder | pKd |
| --- | --- |
| ACGAACUGCCCUCGCUACUUUCAUGUUGCGACGCACAGACGU (ssRNA, 2'-F C and U; 2'-OH A and G; 3' idT) [T34] | 8.00 |
| ACGAACUGCCCUCGAUCGACGCACAGACGUAAAAA (ssRNA, 2'-F C and U; 2'-OH A and G; 3' idT) [T83] | 8.46 |

Look up pKd for the entries below, preserving their order.
1. ACGAACUGCCCUCGAUCGACGCACAGACGUUUUUU (ssRNA, mAmCmGmAmAmCmUmGfCfCfCmUmCmGmAmUmCmGmAfCfGfCmAmCmAmGmAmCmGfUmUmUmUmUmU-idT) [T79 vrt6]
2. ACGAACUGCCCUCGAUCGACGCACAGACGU (ssRNA, mAmCmGmAmAmCfUmGfCfCfCmUmCmGmAmUmCmGmAfCmGfCmAmCmAmGmAmCmGfU-idT) [T59 vrt5]

OUTPUT:
1: 7.22; 2: 6.59

INPUT: Tell me the measured pKd of ACGAACUGCCCUCGCACUUAUGUGCGACGCACAGACGU (ssRNA, 2'-F C and U; 2'-OH A and G; 3' idT) [T50] , please.
OUTPUT: 8.02
